FYI, the data here is from patent US6274557A.

Target: recombinant murine macrophage nitric oxide synthase (iNOS) (Mus musculus)
Test: Hemoglobin capture assay of nitric oxide formation, iNOS
Settings: Table 2 dipeptides
Peptide text beside a SMILES is read from it.
# iNOS/eNOS selectivity listing for each entry below
Please reply with the value in numeric form only.

### Prompt What value of iNOS/eNOS selectivity has been reported for the following compound? COC(=O)[C@@H](CCCNC(=N)N[N+](=O)[O-])NC(=O)[C@@H](N)Cc1ccccc1 [compound 10, L-Phe-D-Arg^NO2 -OMe] (HELM PEPTIDE1{F.[N=C(NCCC[C@@H](N[*:1])C(=O)[*:2])N[N+](=O)[O-]].[CO[*:1]]}$$$$V2.0)
### Response 0.02

### Prompt What value of iNOS/eNOS selectivity has been reported for the following compound? `COC(=O)[C@H](Cc1ccccc1)NC(=O)[C@@H](N)CCCNC(=N)N[N+](=O)[O-]`
### Response 8.9

### Prompt What value of iNOS/eNOS selectivity has been reported for the following compound? `N=C(NCCC[C@H](N)C(=O)N[C@@H](Cc1ccccc1)C(=O)O)N[N+](=O)[O-]`
### Response 2.5

### Prompt What value of iNOS/eNOS selectivity has been reported for the following compound? COC(=O)[C@H](CCCNC(=N)N[N+](=O)[O-])NC(=O)[C@H](N)Cc1ccccc1 [compound 11, D-Phe-L-Arg^NO2 -OMe] (HELM PEPTIDE1{[dF].[N=C(NCCC[C@H](N[*:1])C(=O)[*:2])N[N+](=O)[O-]].[CO[*:1]]}$$$$V2.0)
### Response 7.1

### Prompt What value of iNOS/eNOS selectivity has been reported for the following compound? N=C(NCCC[C@H](NC(=O)[C@@H](N)Cc1ccccc1)C(=O)O)N[N+](=O)[O-] [compound 2, L-Phe-L-Arg^NO2] (HELM PEPTIDE1{F.[N=C(NCCC[C@H](N[*:1])C(=O)O)N[N+](=O)[O-]]}$$$$V2.0)
### Response 5.3

====

Target: UniProtKB A0A3Q1M6M2
Experiment: Hemoglobin capture assay of nitric oxide formation, nNOS
Details: read-out: KI (time-dependent inhibition); with nNOS
assay-metric: Ki (µM)
Give the quantity in µM, number only.

### Prompt What measured Ki is associated with NC(=NCCC[C@H](N)C(=O)O)N[N+](=O)[O-] [N-nitro-L-arginine, N^ω --Nitro-L-arginine, reference compound] on UniProtKB A0A3Q1M6M2?
### Response 9.3

====

Target: recombinant bovine endothelial nitric oxide synthase (eNOS) (Bos taurus)
Construct: made in house; host or cells: E. coli
Experiment: Hemoglobin capture assay of nitric oxide formation, eNOS
Assay type: biochemical
Conditions: Table 2, Dixon plots
pKi: −log10 of the molar value. Peptide text beside a SMILES is read from it.
Rule: Criterion met for pKi not less than 3, Criterion not met for anything less.

Examples from the recorded data:
{"columns": ["molecule", "assigned-category"],
 "data": [
  ["N=C(NCCC[C@H](NC(=O)[C@@H](N)Cc1ccccc1)C(=O)OCc1ccccc1)N[N+](=O)[O-] [compound 6, L-Phe-L-Arg^NO2 -OBn] (HELM PEPTIDE1{F.[N=C(NCCC[C@H](N[*:1])C(=O)[*:2])N[N+](=O)[O-]].[c1ccc(CO[*:1])cc1]}$$$$V2.0)", "Criterion met"],
  ["COC(=O)[C@H](Cc1ccccc1)NC(=O)[C@@H](N)CCCNC(=N)N[N+](=O)[O-]", "Criterion met"],
  ["COC(=O)[C@@H](Cc1ccccc1)NC(=O)[C@@H](N)CCCNC(=N)N[N+](=O)[O-]", "Criterion met"],
  ["COC(=O)[C@H](Cc1ccccc1)NC(=O)[C@H](N)CCCNC(=N)N[N+](=O)[O-]", "Criterion not met"]
]}

Shift focus to the following entry.
### Prompt Form field: pKi at least 3? Entry: COC(=O)[C@H](CCCNC(=N)N[N+](=O)[O-])NC(=O)[C@H](N)Cc1ccccc1 [compound 11, D-Phe-L-Arg^NO2 -OMe] (HELM PEPTIDE1{[dF].[N=C(NCCC[C@H](N[*:1])C(=O)[*:2])N[N+](=O)[O-]].[CO[*:1]]}$$$$V2.0)
### Response Criterion not met
